The measured values listed here are drawn from PubChem BioAssay (NCI).

Test system: SK-MEL-5 melanoma
assayName: NCI-60 one-dose screen, 48 h (100 = growth as untreated, 0 = no growth, -100 = all killed)
assayContext: 10 µM unless noted
Compounds without any hit were thinned out: in the full panel of roughly 83,000, 20% have a hit.
Field 'label' (enum: MET / NOT MET). Set to MET when growth is strictly under 50%; else NOT MET.

compound	category
COc1cccc(-c2cc(C(=O)Nc3ccc(/C=C/c4ccc(OC5CCN(C)CC5)cc4)cc3)ccc2OC)c1	NOT MET
CCNc1nc2cc(Nc3ccnc4cc(Cl)ccc34)ccc2o1	MET
CCCCCN1C=C/C(=C\C(=O)N(C)c2ccc(Oc3ccccc3)cc2)c2ccccc21	NOT MET
O=C1c2ccc3c4c(ccc(c24)C(=O)N1CCCNCc1ccccc1F)C(=O)N(CCCNCc1ccccc1F)C3=O	MET
N#CC(C(=O)/C(=N/NC(=O)c1ccccc1O)C(C#N)c1ccccc1)c1ccccc1 (stereo not given)	NOT MET
Nc1nc(Nc2ccccc2SSc2ccccc2Nc2nc(N)nc(-c3cccs3)n2)nc(-c2ccsc2)n1	NOT MET
COc1cc2c(=O)n(CCN)c3c4cc5c(cc4ccc3c2cc1OC)OCO5	MET
CCCCCC(=O)Oc1ccc(/C(=C(\C)c2ccccc2)c2ccc(OCCN3CCCCC3)cc2)cc1	NOT MET
O=C1Nc2cc(-c3ccc(NS(=O)(=O)c4ccccc4)cc3)ccc2/C1=C/c1ccc[nH]1	NOT MET
COc1ccc(/C=C/c2nc(Nc3cccc(NC(C)=O)c3)c3ccccc3n2)cc1	NOT MET
CCN(CC)CCn1c(=O)c2cc(OC)c(OC)cc2c2ccc3cc4c(cc3c21)OCO4	MET
Nc1c(C(=O)Nc2cccc3cnccc23)sc2nc3c(cc12)C(=O)CCC3	MET
COc1cc2c(c(OC)c1OC)-c1ccc(NNC(=S)N(Cc3cccc(C[N+](Cc4cccc(CNC56CC7CC(CC(C7)C5)C6)c4)(Cc4cccc(CNC56CC7CC(CC(C7)C5)C6)c4)Cc4cccc(CN(C(=S)NNc5ccc6c(cc5=O)[C@@H](NC(C)=O)CCc5cc(OC)c(OC)c(OC)c5-6)C56CC7CC(CC(C7)C5)C6)c4)c3)C34CC5CC(CC(C5)C3)C4)c(=O)cc1[C@@H](NC(C)=O)CC2 (stereo not given in full)	MET

---

Tested on: HCT-116 colon
assayName: NCI-60 one-dose screen, 48 h (100 = growth as untreated, 0 = no growth, -100 = all killed)
assayContext: 10 µM unless noted
Compounds without any hit were thinned out: in the full panel of roughly 83,000, 20% have a hit.
List of growth values.
readout: growth (%)

inputSmiles	unitString	val
COc1cccc(-c2cc(C(=O)Nc3ccc(/C=C/c4ccc(OC5CCN(C)CC5)cc4)cc3)ccc2OC)c1	%	-93.4
C=C(C)[C@@H]1CC[C@]2(C(=O)N[C@@H](Cc3ccccc3)C(=O)OC)CC[C@]3(C)[C@H](CC[C@@H]4[C@@]5(C)CCC(=O)C(C)(C)[C@@H]5CC[C@]43C)[C@@H]12	%	68.4
N/C(=N\C(N)=N\c1nc2ccccc2s1)c1cnccn1	%	8.53
COc1cccc(-c2nc3occn3c2-c2ccnc(NCCNS(=O)(=O)c3ccc(C(F)(F)F)cc3)n2)c1	%	92.9

---

Test system: SF-539 CNS
assayName: NCI-60 one-dose screen, 48 h (100 = growth as untreated, 0 = no growth, -100 = all killed)
assayContext: 10 µM unless noted
This is part of a sample that, as a whole, favours compounds with a hit. Of some 83,000 tested, about 20% had one in any assay.
# label = True if growth >= 10% else False

inputSmiles	category
Cc1cc(C(=O)/C=C/c2ccc[nH]2)ccc1-n1ccc(C(F)(F)F)n1	True
COc1cc2oc(-c3cccc(C(=O)Nc4ccc5c(c4)OCO5)c3)cc(=O)c2c(O)c1OC	True
COc1cc2c(=O)n(CCN(C)C)c3c4cc5c(cc4ccc3c2cc1OC)OCO5	False
OCc1cnccc1NCCCOc1ccccc1	True
CCOC(=O)c1cc(C(=O)c2ccc(OC)cc2)n2ccc(/C=C/c3cc[n+](CC(=O)c4ccc(OC)cc4)cc3)cc12	True

---

# growth values compiled below
Test system: A549/ATCC NSCLC
assayName: NCI-60 one-dose screen, 48 h (100 = growth as untreated, 0 = no growth, -100 = all killed)
assayContext: 10 µM unless noted
This is part of a sample that, as a whole, favours compounds with a hit. Of some 83,000 tested, about 20% had one in any assay.

inputSmiles	growth / %
Cn1ccnc1C(=O)/C=C/c1ccc(CC(=O)Nc2ccc(F)cc2)cc1	38.2
C=C1C(=O)O[C@H]2[C@H]1CC/C(COC(=O)NCCc1c[nH]c3ccc(OC)cc13)=C\CC[C@@]1(C)O[C@@H]21	64.2
Cc1ccc(-c2csc(NC(=O)CSc3nc(-c4ccccc4)cc(=O)[nH]3)n2)cc1	91.7

---

Tested on: NCI/ADR-RES ovarian
assayName: NCI-60 one-dose screen, 48 h
assayContext: 10 µM unless noted
Compounds without any hit were thinned out: in the full panel of roughly 83,000, 20% have a hit. Calls of active or inactive are those of the source. The calls were made as follows: active = growth percent below 10; inactive = the rest.
Outcome codes: active, inactive

inputSmiles	category
COc1cc2c(=O)n(CCN)c3c4cc5c(cc4ccc3c2cc1OC)OCO5	active
Cn1cc(-c2csc(-c3c[nH]c4ccccc34)n2)c2ccnc(Cl)c21	inactive
N#Cc1cccc(-c2ccc3c(c2)NC(=O)/C3=C\c2ccc[nH]2)c1	inactive
CC(=O)c1ccc(NS(=O)(=O)c2cccc(C(=O)Nc3ccc(Br)cc3)c2)cc1	inactive
CCCCCCNC(=O)Nc1ccc2cc3ccc(NC(=O)NCCCCCC)cc3nc2c1	inactive
COC1=CC(=O)c2ccccc2C1=O	inactive

---

Tested on: K-562 leukemia
assayName: NCI-60 one-dose screen, 48 h
assayContext: 10 µM unless noted
This is part of a sample that, as a whole, favours compounds with a hit. Of some 83,000 tested, about 20% had one in any assay. Calls of active or inactive are those of the source. The calls were made as follows: active = growth percent below 10; inactive = the rest.
Possible outcomes: T for active, F for inactive

compound	category
CN(C)CCn1c2ccc(Br)cc2c2nc3ccccc3nc21	F
COc1ccc2[nH]c(=O)c(CN3CCN(c4nccc(-c5ccc(Cl)cc5)n4)CC3)cc2c1	F
Nc1c(C(=O)Nc2cccc3cnccc23)sc2nc3c(cc12)C(=O)CCC3	F
COc1cccc(-c2cc(C(=O)Nc3ccc(/C=C/c4ccc(OC5CCN(C)CC5)cc4)cc3)ccc2OC)c1	T
COc1cc2c(=O)n(CCN)c3c4cc5c(cc4ccc3c2cc1OC)OCO5	T
Cc1ccc(NC(=O)c2cc(-c3nc4ccccc4s3)c(=O)n(NS(=O)(=O)c3ccc(Cl)cc3)c2N)cc1	F
CC1=C(C(=O)/C=C/c2c[nH]c3ccccc23)C(c2ccccc2)NC(=S)N1 (centres undefined)	F
CCCCOc1ccc(/C=N/Nc2cc(C)nc3ccc(Br)cc23)cc1	T
C=C1C(=O)O[C@H]2[C@H]1CC/C(CNC(=O)CCc1ccc(OC)cc1)=C\CC[C@@]1(C)O[C@@H]21	F

---

System: SNB-75 CNS
assayName: NCI-60 one-dose screen, 48 h (100 = growth as untreated, 0 = no growth, -100 = all killed)
assayContext: 10 µM unless noted
About 83,000 compounds went through this panel and 20% of them were active in at least one assay; those are over-represented in the sample as a whole.
Think of 90% as a floor: if growth stands on it or above, it is 1; beneath it, 0.

compound	category
N#Cc1c(NC(=O)NCc2ccccc2)sc2c1CCCCC2	0
CN1CCN(C(=O)[C@]23CCC(C)(C)C[C@H]2C2=CC[C@@H]4[C@@]5(C)C/C(=C/c6ccncc6)C(=O)C(C)(C)[C@@H]5CC[C@@]4(C)[C@]2(C)CC3)CC1	0
[O-][n+]1c(Cl)cc(Cl)c2ccccc21	1
C=CC(=O)N[C@@H](/C=C/C(=O)OCC)Cc1ccc(-c2cc(Cl)cc(Cl)c2)cc1	0
COc1ccc(/C=C/c2nc(Nc3ccc(S(=O)(=O)NC(C)=O)cc3)c3ccccc3n2)cc1	1
COC1=CC(=O)c2ccccc2C1=O	0
Cn1ccnc1C(=O)/C=C/c1ccc(CC(=O)Nc2ccc(F)cc2)cc1	0
COc1ccc(C(=O)/C=C/c2cc3ccccc3n3nnnc23)cc1	1
CC(=O)Nc1cccc(-c2ccc3c(c2)NC(=O)/C3=C\c2ccc[nH]2)c1	0
COc1cc(C2C3CC4CCCC[C@H]4N3[C@@]3(C(=O)Nc4cc(Cl)ccc43)C2C(=O)c2nc3ccccc3[nH]2)cc(OC)c1OC (stereo partly drawn)	0
COc1cc(NC(C)CCCNC(=O)CCC(=O)NCCCNCCCCCCCCNCCCNC(=O)CCC(=O)NCCCC(C)Nc2cc(OC)cc3cccnc23)c2ncccc2c1 (stereo not drawn)	0
COc1ccc(-c2nc(S(=O)(=O)c3ccccc3)c(S(=O)CC(=O)N3CCC(C)CC3)o2)cc1 (stereo not drawn)	0
CC(=O)c1cc2c(N)c(C(=O)Nc3cccc4ccncc34)sc2nc1C	1
CC(C)(C)c1ccc(NS(=O)(=O)c2ccc3nc(NC(=O)c4cnccn4)[nH]c3c2)cc1	0
COc1ccc(C(=O)c2cc(C)c(OC)c(C)c2)c(OC)c1OC(=O)C(Cl)Cl	0
CCN(CC)c1ccc(/C=N/NC(=O)CSc2nc3ccccc3c(=O)n2Cc2ccc(S(N)(=O)=O)cc2)c(O)c1	0
O=C(CCN1CCCC1)Nc1ccc2c(NCCCCc3ccccc3)c3ccccc3nc2c1	0
CCCCCN1C=C/C(=C\C(=O)N(C)c2ccc(Oc3ccccc3)cc2)c2ccccc21	1
CCOC(=O)c1cc(C#N)n2ccc3ccccc3c12	0
COCCCN1CC(O)=C(c2nc(-c3ccc(C)cc3)cs2)C1=N	1
COc1cc(-c2cc(-c3ccc(N(C)C)cc3)nc(N3CCOCC3)c2C#N)cc(OC)c1OC	0
O=C(C1CCC1)N1N=C(c2ccc(-n3ccc(C(F)(F)F)n3)cc2)CC1c1ccc[nH]1 (stereo not drawn)	1
Cc1ccc(NS(=O)(=O)c2ccc(-c3cnc(C4CC4)o3)cc2)cc1C(F)(F)F	0
CSc1nc2sc3cccc(Cl)c3n2c(=N)c1C#N	1
CCCOC(=O)N[C@H]1CCc2c(Cl)c(OC)c(OC)c(OC)c2-c2ccc(SC)c(=O)cc21	0
CC(C)(C)CC(C)(C)n1nnnc1C(NC12CC3CC(CC(C3)C1)C2)c1ccccc1 (stereo not drawn)	0
O=C1/C=C/[C@@H](O)[C@@H]2C[C@@H](O)C[C@H]2/C=C/CCC[C@H](CCc2cccc3ccccc23)O1	0
O=C(/C(=C\c1ccc([N+](=O)[O-])cc1)S(=O)Cc1ccc(Cl)cc1)c1ccc(Cl)cc1 (stereo not drawn)	1
CC(=O)CCC(=O)OCc1cc(=O)c(O)co1	1
